- TEST SYSTEM: T1, Recombinant human DSG2 protein (Leinco Technologies) (human, UniProt Q14126 50-609)
- T1 construct: also called soluble DSG2; soluble recombinant DSG2
- T1 sequence: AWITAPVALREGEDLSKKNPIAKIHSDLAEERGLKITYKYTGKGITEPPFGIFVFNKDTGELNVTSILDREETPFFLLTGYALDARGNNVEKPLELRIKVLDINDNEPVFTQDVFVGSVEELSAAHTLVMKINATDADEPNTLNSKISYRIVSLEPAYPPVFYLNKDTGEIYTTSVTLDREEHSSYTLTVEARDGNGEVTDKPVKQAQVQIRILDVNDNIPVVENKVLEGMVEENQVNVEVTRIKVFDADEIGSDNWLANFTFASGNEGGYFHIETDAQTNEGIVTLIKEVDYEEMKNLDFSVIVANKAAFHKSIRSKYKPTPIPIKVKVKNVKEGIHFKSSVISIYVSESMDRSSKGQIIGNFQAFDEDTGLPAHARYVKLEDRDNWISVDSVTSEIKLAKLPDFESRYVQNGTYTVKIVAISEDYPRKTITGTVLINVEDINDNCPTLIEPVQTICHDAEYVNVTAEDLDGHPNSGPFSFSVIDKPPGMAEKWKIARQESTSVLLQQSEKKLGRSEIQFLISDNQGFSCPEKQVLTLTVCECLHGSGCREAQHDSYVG
- ASSAY METHOD TEXT: Western blot of dimeric knob (trimer band), soluble recombinant DSG2 as probe, anti-DSG2 mAb
READOUT: Western blot residual DSG2 binding (wtAd3 knob = 100%)
Express the result in % but write the number alone.

Per the records, this binder ( dimeric Ad3 fiber knob mutant N186D, D261N, L296R (designed binder, also called mutant with mutations in all three areas (N185, D261, L296)) MKVSALKEKVSALKEKVSALKEKVSALKEKVSALKEGSGGGSGGGSGGGSNSIALKNNTLWTGPKPEANCIIEYGKQNPDSKLTLILVKNGGIVNGYVTLMGASDYVNTLFKDKNVSINVELYFDATGHILPDSSSLKTDLELKYKQTADFSARGFMPSTTAYPFVLPNAGTHNENYIFGQCYYKASNGALFPLEVTVMLNKRLPDSRTSYVMTFLWSLNAGRAPETTQATLITSPFTFSYIREDD ) has Western blot residual DSG2 binding (wtAd3 knob = 100%) equal to 0

// sample dimeric Ad3 fiber knob mutant D261N, L296R (designed binder, also called D261, L296R; combination of D261N and L296R) MKVSALKEKVSALKEKVSALKEKVSALKEKVSALKEGSGGGSGGGSGGGSNSIALKNNTLWTGPKPEANCIIEYGKQNPDSKLTLILVKNGGIVNGYVTLMGASDYVNTLFKNKNVSINVELYFDATGHILPDSSSLKTDLELKYKQTADFSARGFMPSTTAYPFVLPNAGTHNENYIFGQCYYKASNGALFPLEVTVMLNKRLPDSRTSYVMTFLWSLNAGRAPETTQATLITSPFTFSYIREDD , its Western blot residual DSG2 binding (wtAd3 knob = 100%) was 7

For this binder ( dimeric Ad3 fiber knob mutant N186D, D261N (designed binder, also called combination of N186D and D261N) MKVSALKEKVSALKEKVSALKEKVSALKEKVSALKEGSGGGSGGGSGGGSNSIALKNNTLWTGPKPEANCIIEYGKQNPDSKLTLILVKNGGIVNGYVTLMGASDYVNTLFKDKNVSINVELYFDATGHILPDSSSLKTDLELKYKQTADFSARGFMPSTTAYPFVLPNAGTHNENYIFGQCYYKASNGALFPLEVTVMLNKRLPDSRTSYVMTFLWSLNAGLAPETTQATLITSPFTFSYIREDD ), measured Western blot residual DSG2 binding (wtAd3 knob = 100%) is 7
